# study_target: Adrenergic receptor alpha (Rattus norvegicus) (UniProt P15823+P23944+P43140+P22086+P19328+P22909)
# experimental_protocol: Relative affinity for Alpha 2 over Alpha 1 adrenergic receptors
# Type: protein assay
Respond with Met for Selectivity values of 9 and above, Not met for values below.

Query: Does the reported Selectivity for Cc1cccc2c1CCC=C2c1c[nH]cn1 fall at or above the 9 mark?
Reply: Met

Query: Does the reported Selectivity for COc1ccc2c(c1)CCCC2c1c[nH]cn1 (configuration not stated) fall at or above the 9 mark?
Reply: Not met

Query: Does the reported Selectivity for Oc1cccc2c1CCCC2c1c[nH]cn1 (configuration not stated) fall at or above the 9 mark?
Reply: Not met

Query: Does the reported Selectivity for Cc1cccc(C(C)c2c[nH]cn2)c1C (configuration not stated) fall at or above the 9 mark?
Reply: Met

Query: Does the reported Selectivity for Cc1cccc2c1CCCC2c1c[nH]cn1 (configuration not stated) fall at or above the 9 mark?
Reply: Not met

----------
# study_target: Adrenergic receptor alpha-1 (Rattus norvegicus, UniProt P15823+P23944+P43140)
# experimental_protocol: Displacement of [3H]-prazosin from Alpha-1 adrenergic receptor of rat brain membranes
# Assay type: cell membranes, Membrane
Could you please classify the records by Ki using these ranges: one: < 200 nM; two: ≥ 200 nM and < 2000 nM; three: ≥ 2000 nM

Query: For C1=C(c2c[nH]cn2)c2cccc(OCc3ccccc3)c2CC1 , which Ki bin applies?
Reply: three

Query: For Cc1cc(C)c2c(c1)C(c1c[nH]cn1)CCC2 (stereo not drawn) , which Ki bin applies?
Reply: one

Query: For Cc1cccc2c1CCC2c1c[nH]cn1 (stereo not drawn) , which Ki bin applies?
Reply: one

Query: For COc1ccc2c(c1)C(c1c[nH]cn1)=CCC2 , which Ki bin applies?
Reply: three

Query: For Cc1cccc2c1CCCC2c1c[nH]cn1 (stereo not drawn) , which Ki bin applies?
Reply: one

Query: For Cc1cccc2c1CCC=C2c1c[nH]cn1 , which Ki bin applies?
Reply: two

Query: For Cc1cc(C)c2c(c1)C(c1c[nH]cn1)=CCC2 , which Ki bin applies?
Reply: three

Query: For Oc1cccc2c1CCCC2c1c[nH]cn1 (stereo not drawn) , which Ki bin applies?
Reply: one

Query: For COc1ccc2c(c1)C(c1c[nH]cn1)CCC2 (stereo not drawn) , which Ki bin applies?
Reply: two

Query: For COc1ccc2c(c1)CCC=C2c1c[nH]cn1 , which Ki bin applies?
Reply: two

Query: For COc1cccc2c1CCCC2c1c[nH]cn1 (stereo not drawn) , which Ki bin applies?
Reply: two

Query: For COc1cccc2c1CCC=C2c1c[nH]cn1 , which Ki bin applies?
Reply: three

----------
# study_target: Adrenergic receptor alpha (Rattus norvegicus) (UniProt P15823+P23944+P43140+P22086+P19328+P22909)
# experimental_protocol: Relative affinity for Alpha 2 over Alpha 1 adrenergic receptors
# Type: protein assay
measured_metric: Selectivity
Answer field: number only, no words.

Query: Reported Selectivity for Cc1cc(C)c2c(c1)C(c1c[nH]cn1)=CCC2 : what is it?
Reply: 12.8

Query: Reported Selectivity for C1=C(c2c[nH]cn2)c2cccc(OCc3ccccc3)c2CC1 : what is it?
Reply: 3.09

Query: Reported Selectivity for Cc1cc(C)c2c(c1)C(c1c[nH]cn1)CCC2 (configuration not stated) : what is it?
Reply: 1.27

Query: Reported Selectivity for COc1ccc2c(c1)CCC=C2c1c[nH]cn1 : what is it?
Reply: 2.81

Query: Reported Selectivity for COc1cccc2c1CCC=C2c1c[nH]cn1 : what is it?
Reply: 2.1

Query: Reported Selectivity for COc1cccc2c1CCCC2c1c[nH]cn1 (configuration not stated) : what is it?
Reply: 2.48

Query: Reported Selectivity for Cc1cccc2c1CCC2c1c[nH]cn1 (configuration not stated) : what is it?
Reply: 8.29
